Assay: small-molecule binders of probe aNOTCH3, primary screen, biochemical, small-molecule microarray, 635/667 nm fluorescence (AID 1120);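 note: probe is a biotin-tagged antibody raised against NOTCH3 rather than NOTCH3 protein; score merges spot fluorescence near 667 nm with spot signal to noise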
Test Context: higher = more signal
Please respond with reported composite z-score for every item in the list.

Before answering, review these 3 worked examples.
| Compound | Reported Endpoint | Reported Result |
| --- | --- | --- |
| C=CCC(OC(C)=O)[C@@H]1[C@@H](N(Cc2ccc(-c3cccc(C(F)(F)F)c3)o2)C(=O)Cc2ccc(F)cc2)c2cc(OCCCO)ccc2N1C(=O)c1ccc2ccccc2c1 (some centres undefined) | composite z-score | -0.0813 |
| CCOC(=O)C1=CC[C@@H](c2ccc(F)cc2)N(S(=O)(=O)c2ccc(C)cc2)[C@H]1c1ccc([N+](=O)[O-])cc1 | composite z-score | 0.137 |
| CC=CC(O)C1C=CC2C(=O)N(C)C(=O)C2N1NC(=O)OC(C)(C)C (centres undefined) | composite z-score | 0.0687 |

Q: Check the records and state composite z-score for O=C1NC(=O)C2C1C=CC(C(O)c1ccc(F)cc1)N2Nc1ccccn1 (centres undefined)
Result: -0.004
